- assaySystem: complement C5a receptor 1 (C5aR1) (Homo sapiens)
- Construct: β-galactosidase fragment (PathHunter enzyme complementation); host or cells: CHO-K1 (PathHunter CHO-K1 C5aR1 β-arrestin cell line)
- Sequence (P21730 whole entry, the tested form may be a part): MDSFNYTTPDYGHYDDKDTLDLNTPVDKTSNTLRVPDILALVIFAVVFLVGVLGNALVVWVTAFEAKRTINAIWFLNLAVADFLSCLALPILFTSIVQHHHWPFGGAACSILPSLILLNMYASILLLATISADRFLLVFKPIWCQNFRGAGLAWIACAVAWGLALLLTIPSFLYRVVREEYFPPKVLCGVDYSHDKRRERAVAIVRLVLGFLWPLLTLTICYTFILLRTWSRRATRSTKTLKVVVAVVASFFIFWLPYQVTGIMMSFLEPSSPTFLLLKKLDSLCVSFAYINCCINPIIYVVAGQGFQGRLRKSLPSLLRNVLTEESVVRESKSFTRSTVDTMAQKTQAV
- protocolDescription: β-arrestin recruitment via C5aR1 activation in live CHO-K1 cells (PathHunter), agonist mode
- Type: cell-based
- Method: Exemplary compounds were evaluated for classical GPCR β-arrestin recruitment via complement C5a receptor 1 (C5aR1) activation in live CHO-K1 cells. This cell line expresses two fragments of the […] protein coupled to β-arrestin and C5aR1. Complementation of the two fragments allows for the assessment of both C5aR1 agonism and antagonism. […]
propertyName: [Agonist] B-arrestin2 recruitment: Average EC50 (nM)

Guide cases for [Agonist] B-arrestin2 recruitment: Average EC50 (nM), answers given:
| compound | endpointValue |
| --- | --- |
| Cc1c(C2CCN(c3cnccc3C(F)(F)F)CC2)c(=O)n(Cc2ncccc2F)c2nccnc12 [compound 86] | Non-Active |
| Cc1nccnc1N1CCC(c2cc3nccnc3n(Cc3ccccc3C(F)(F)F)c2=O)CC1 [compound 8] | Non-Active |
| Cc1ccc2cc([C@H]3CC[C@H](c4cnccc4C(F)(F)F)CC3)c(=O)n(Cc3ncccc3C(C)(F)F)c2n1 [compound 254] | Non-Active |
| Cc1cccc(F)c1N1CCC(c2cc3nccnc3n(Cc3cccnc3C(F)(F)F)c2=O)CC1 [compound 13] | Non-Active |
| Cc1cnc2cc([C@H]3CC[C@@H](c4c(C)cccc4F)CC3)c(=O)n(Cc3nccnc3C)c2n1 [137A] | Non-Active |
| Cc1cnc2cc(N3CCN(c4cc(F)cnc4C)CC3)c(=O)n(Cc3ncccc3C(F)(F)F)c2n1 [compound 69] | Non-Active |
| Cc1cnc2cc(C3CCN(c4cnsc4C)CC3)c(=O)n(Cc3ncccc3C(F)(F)F)c2n1 [compound 145] | Non-Active |
| Cc1cccc(F)c1N1CCC(c2nc3ccccc3n(Cc3nccnc3C(F)(F)F)c2=O)CC1 [compound 136] | Non-Active |

What does the data say about its [Agonist] B-arrestin2 recruitment: Average EC50 (nM)? Entry: Cc1cccc(F)c1N1CCC(c2cc3nccnc3n([C@@H]3CCCc4cccnc43)c2=O)CC1 [40a]
Non-Active

Quick one: [Agonist] B-arrestin2 recruitment: Average EC50 (nM) for Cc1cccc(F)c1[C@H]1CC[C@H](c2cc3ncc(C(F)F)nc3n(Cc3ncccc3C(F)(F)F)c2=O)CC1 [compound 240] ?
Non-Active
